Target: UniProtKB P28845
Sequence (P28845 whole entry): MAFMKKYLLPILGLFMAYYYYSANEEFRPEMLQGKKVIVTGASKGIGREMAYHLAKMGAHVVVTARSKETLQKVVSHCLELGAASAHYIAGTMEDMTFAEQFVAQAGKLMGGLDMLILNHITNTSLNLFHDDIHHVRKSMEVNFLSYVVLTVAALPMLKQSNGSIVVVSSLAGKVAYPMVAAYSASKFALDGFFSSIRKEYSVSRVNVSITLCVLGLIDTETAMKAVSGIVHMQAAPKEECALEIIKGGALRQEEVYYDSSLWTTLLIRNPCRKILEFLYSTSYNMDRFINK
Assay: Inhibition of human 11beta-HSD-1
Classify: Satisfied when IC50 is strictly less than 20 nM; Not satisfied when IC50 is not.

These recorded examples may help you get a feel for the data.
compound: O=C(O)CC1(c2ccc(F)cc2)C2CC3CC1CC(C2)C3O (stereo not given)
discrete-label: Not satisfied

compound: O=C(O)CC1(c2ccc(F)cc2)C2CC3CC1CC(C2)O3 (stereo not given)
discrete-label: Not satisfied

compound: O=C(O)CC1(c2ccc(F)cc2)C2CCCC1COC2 (stereo not given)
discrete-label: Not satisfied

compound: COc1ccc(C2(CC(=O)O)C3CC4CC(C3)CC2C4)cc1 (stereo not given)
discrete-label: Satisfied

Consider now this further compound.
Exercise: Please state whether IC50 is below 20 nM for N#Cc1cccc(C2(CC(=O)O)C3CC4CC(C3)CC2C4)c1 (stereo not given)
Solution: Satisfied

* * *

Target: 11-beta-hydroxysteroid dehydrogenase 1 (Mus musculus, UniProt P50172)
Sequence (P50172 whole entry): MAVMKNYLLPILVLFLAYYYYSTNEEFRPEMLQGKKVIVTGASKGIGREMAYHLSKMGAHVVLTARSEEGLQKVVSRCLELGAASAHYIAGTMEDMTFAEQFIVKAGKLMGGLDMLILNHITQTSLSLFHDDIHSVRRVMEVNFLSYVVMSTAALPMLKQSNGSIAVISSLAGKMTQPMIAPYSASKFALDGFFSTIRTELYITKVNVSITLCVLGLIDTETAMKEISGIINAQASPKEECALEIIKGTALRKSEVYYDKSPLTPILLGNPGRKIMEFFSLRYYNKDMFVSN
Assay: Inhibition of mouse 11beta-HSD-1
quantity-kind: IC50 (nM)
Give the value, in units of nM, as a plain number.

compound: O=C(O)CC1(Cc2ccccc2Cl)C2CC3CC(C2)CC1C3 (centres undefined)
test-target: 11-beta-hydroxysteroid dehydrogenase 1 (Mus musculus, UniProt P50172)
unit-text: nM
IC50: 155

Sample O=C(O)CC1(c2cccc(F)c2)C2CC3CC(C2)CC1C3 (centres undefined) ; IC50 observed: 334

Sample O=C(O)CC1(c2ccc(F)cc2)C2CCCC1CC(O)C2 (single isomer, unassigned; 6h) ; IC50 observed: 6850
